B1: Poly(rC)-binding protein 1, residues 278 to 350; numbered along this chain, Q15365 (parent)
chain: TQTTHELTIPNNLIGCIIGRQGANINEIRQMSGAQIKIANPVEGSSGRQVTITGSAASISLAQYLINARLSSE

variants of: B1; test: abundance fitness (aPCA) (normalised: wild type 0, dead -1); higher = more abundant; growth selection in yeast, the domain comes from the species named; details: Homo sapiens
Kindly state abundance fitness for each of the entries shown.
// no unit, no text: just the number

Reported abundance fitness for `E27W` : what is it?
-0.136

Reported abundance fitness for `S55C` : what is it?
-0.252

Reported abundance fitness for `I14F` : what is it?
-0.378

Reported abundance fitness for `T8H` : what is it?
0.017

Reported abundance fitness for `A34P` : what is it?
-0.372

Reported abundance fitness for `N11S` : what is it?
-0.09

Reported abundance fitness for `E73M` : what is it?
0.245

Reported abundance fitness for `G47K` : what is it?
-0.01

Reported abundance fitness for `L61E` : what is it?
0.091

Reported abundance fitness for `T4H` : what is it?
-0.26

Reported abundance fitness for `A57P` : what is it?
-0.02

Reported abundance fitness for `Q2E` : what is it?
-0.077

Reported abundance fitness for `G44K` : what is it?
-0.229

Reported abundance fitness for `S60I` : what is it?
-0.337

Reported abundance fitness for `I38Q` : what is it?
-0.828

Reported abundance fitness for `N26E` : what is it?
-0.035

Reported abundance fitness for `S60V` : what is it?
-0.352

Reported abundance fitness for `T1P` : what is it?
-0.141

Reported abundance fitness for `N40Y` : what is it?
-0.165

Reported abundance fitness for `N11Y` : what is it?
-0.549

Reported abundance fitness for `S46M` : what is it?
-0.139

Reported abundance fitness for `G19R` : what is it?
-0.609

Reported abundance fitness for `A39K` : what is it?
-0.05

Reported abundance fitness for `G47A` : what is it?
0.013

Reported abundance fitness for `G33A` : what is it?
-0.405

Reported abundance fitness for `L7F` : what is it?
-0.051

Reported abundance fitness for `S45D` : what is it?
0.026

Reported abundance fitness for `I38V` : what is it?
-0.094

Reported abundance fitness for `E6K` : what is it?
0.113

Reported abundance fitness for `I36Y` : what is it?
-0.767

Reported abundance fitness for `C16V` : what is it?
-0.083

Reported abundance fitness for `Q21C` : what is it?
-0.281

Reported abundance fitness for `V50M` : what is it?
-0.202

Reported abundance fitness for `Q30W` : what is it?
-0.334

Values were extracted from the Human Domainome abundance scans (Beltran et al. 2025).
